Cited source: PubChem BioAssay (NCATS)

assay: qHTS assay for environmental chemicals that activate the Aryl hydrocarbon Receptor (AhR) signaling pathway (AID 651777); settings: 1A2-DRE human hepatoma cells, luciferase, 24 h; active compounds read high; also: % of control where 0% means no effect; nearly all actives have a fitted effect of over 15% in size
Inconclusive results are not listed.
PROPERTY: activation (%)
Give your result in % as a bare value.

Examples with their reported activation follow.
>  <SMILES>
CCCCCc1cc(O)cc(O)c1

>  <ASSAY RESULT>
9.87

$$$$
>  <SMILES>
Nc1ccc(-c2ccc(N)cc2)cc1

>  <ASSAY RESULT>
11.6

$$$$
>  <SMILES>
CC(=O)NNc1ccccc1

>  <ASSAY RESULT>
2.76

$$$$

Okay, now this compound:
# input What activation value was documented for this compound, Oc1cccc(Cl)c1 ?
# output -0.063
